Target: GRID2IP_2, A4D2P6
Sequence (A4D2P6 272-370): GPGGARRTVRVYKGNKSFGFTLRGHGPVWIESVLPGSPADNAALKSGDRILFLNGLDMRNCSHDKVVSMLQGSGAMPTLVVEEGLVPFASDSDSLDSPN
Test: holdup assay
Set-up: key: below the threshold = too weak to quantify, mostly under pKd 3.1 to 4
Settings: plain residues with an end cap or a label only (N-terminal biotin on a linker: ado-ado)
Returns one of Met or Not met; Met when pKd is >= 4.

| binder | label |
| --- | --- |
| TKDKVQETQI [LRRC4, Q9HBW1] | Met |
| GTMFLRETSL [GUCY1A2, P33402] | Met |
| TKEIPNCTSV [SORCS3, Q9UPU3] | Met |
| SRPHTNETSL [MCC, P23508] | Met |
| RSPVATATSC [DUSP5, Q16690] | Not met |
| KLQNPNQSVV [TYRP1, P17643] | Not met |
| THREVKFTSL [CD46, P15529] | Met |
| IQISELETNV [SLC1A7, O00341] | Not met |
